Overview of recorded inhibition for various compounds
Target: Steroidogenic factor 1 (Homo sapiens)
Test: SF1 (NR5A1) inverse agonists, counter-screen for LRH-1 inverse agonist project, cell-based, luminescence, high throughput (AID 651614);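 also: cells cotransfected with StAR promoter reporter and SF1 expression vector; 0% = vehicle on cells with receptor and 100% = vehicle on cells lacking receptor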
Conditions: cell-based SF1 luciferase reporter, at 3.6 µM, active compounds read high

>  <compound>
CC(C)[C@H](NC(=O)OCc1ccccc1)C(=O)OCC(=O)Nc1ccc(N2CCOCC2)cc1

>  <unit_abbrev>
%

>  <inhibition>
59.2

$$$$
>  <compound>
O=C(CN1C(=O)NC2(CCCCCC2)C1=O)Nc1ccc([N+](=O)[O-])cc1

>  <unit_abbrev>
%

>  <inhibition>
59.6

$$$$
>  <compound>
CCOC(=O)C(C)Oc1cccc2c(=O)n(CC(=O)Nc3ccc(OCC)cc3)ccc12 (stereo not drawn)

>  <unit_abbrev>
%

>  <inhibition>
58.8

$$$$

###

Target: Toll-like receptor 9 (Homo sapiens) (UniProt Q9NR96)
Sequence (Q9NR96 whole entry, looked up): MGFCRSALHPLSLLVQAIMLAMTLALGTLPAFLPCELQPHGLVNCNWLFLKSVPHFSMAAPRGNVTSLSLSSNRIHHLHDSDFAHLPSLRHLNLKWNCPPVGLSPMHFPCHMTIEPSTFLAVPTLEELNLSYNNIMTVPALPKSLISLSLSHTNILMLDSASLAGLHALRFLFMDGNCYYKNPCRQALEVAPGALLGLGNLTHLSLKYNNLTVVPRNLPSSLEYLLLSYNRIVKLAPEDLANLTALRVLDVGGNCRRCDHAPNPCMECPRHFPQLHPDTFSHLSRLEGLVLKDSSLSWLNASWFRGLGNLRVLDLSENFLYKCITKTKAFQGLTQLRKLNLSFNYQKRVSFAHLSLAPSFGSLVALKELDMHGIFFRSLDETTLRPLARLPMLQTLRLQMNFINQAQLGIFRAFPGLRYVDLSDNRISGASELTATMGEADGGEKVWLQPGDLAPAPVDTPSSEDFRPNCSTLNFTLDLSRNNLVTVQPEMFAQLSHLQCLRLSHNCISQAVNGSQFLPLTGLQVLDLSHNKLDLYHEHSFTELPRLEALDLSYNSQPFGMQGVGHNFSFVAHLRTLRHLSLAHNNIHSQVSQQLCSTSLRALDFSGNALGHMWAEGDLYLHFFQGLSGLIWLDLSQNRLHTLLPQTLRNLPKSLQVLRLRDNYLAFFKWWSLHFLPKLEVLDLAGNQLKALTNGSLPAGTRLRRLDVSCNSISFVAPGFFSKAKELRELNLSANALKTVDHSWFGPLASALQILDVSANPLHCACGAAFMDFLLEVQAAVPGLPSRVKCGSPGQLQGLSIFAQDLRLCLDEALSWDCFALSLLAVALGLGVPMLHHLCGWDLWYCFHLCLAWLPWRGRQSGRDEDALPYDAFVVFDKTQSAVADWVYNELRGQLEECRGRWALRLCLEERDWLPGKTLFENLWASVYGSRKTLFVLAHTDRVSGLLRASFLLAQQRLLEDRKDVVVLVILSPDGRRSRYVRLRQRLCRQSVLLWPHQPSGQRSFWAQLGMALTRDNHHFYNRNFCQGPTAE
Assay: TLR9-MyD88 association inhibitors, retest, confirmation, cell-based, CHO, BLA complementation, fluorescence, triplicate (AID 540250);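 also: blue over green emission ratio reports constitutive TLR9 MyD88 association via BLA complementation; 0% = DMSO vehicle wells and 100% = clavulanate BLA inhibitor wells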
Details: CCF4 FRET ratio, at 4.98 µM, active compounds read high
The other results are listed elsewhere or left out.
Tick TRUE if inhibition is 20% or greater. Tick FALSE if inhibition is less than 20%.

>  <compound>
Oc1ccc2ccc3cccc[n+]3c2c1

>  <measured_on>
Toll-like receptor 9 (Homo sapiens) (UniProt Q9NR96)

>  <answer_label>
FALSE

$$$$
>  <compound>
NS(=O)(=O)c1ccc(NC(=O)COC(=O)c2c3c(nc4ccccc24)/C(=C\c2ccc4c(c2)OCO4)CCC3)cc1

>  <measured_on>
Toll-like receptor 9 (Homo sapiens) (UniProt Q9NR96)

>  <answer_label>
FALSE

$$$$
>  <compound>
CS(=O)(=O)c1sc2nc(-c3ccccc3)cc(-c3ccccc3)c2c1N

>  <measured_on>
Toll-like receptor 9 (Homo sapiens) (UniProt Q9NR96)

>  <answer_label>
TRUE

$$$$
>  <compound>
CCOc1ccc(C2=CC(c3ccccc3)n3ncnc3N2)cc1 (stereo unspecified)

>  <measured_on>
Toll-like receptor 9 (Homo sapiens) (UniProt Q9NR96)

>  <answer_label>
FALSE

$$$$
>  <compound>
O=C1C(Cl)=C(Oc2ccccc2)C(=O)c2ccccc21

>  <measured_on>
Toll-like receptor 9 (Homo sapiens) (UniProt Q9NR96)

>  <answer_label>
TRUE

$$$$
>  <compound>
COc1ccccc1CSc1ncc(-c2ccc([N+](=O)[O-])cc2)[nH]1

>  <measured_on>
Toll-like receptor 9 (Homo sapiens) (UniProt Q9NR96)

>  <answer_label>
FALSE

$$$$

###

Target: Nuclear receptor coactivator 1 (Homo sapiens) (UniProt Q15788)
Sequence (Q15788 whole entry, looked up): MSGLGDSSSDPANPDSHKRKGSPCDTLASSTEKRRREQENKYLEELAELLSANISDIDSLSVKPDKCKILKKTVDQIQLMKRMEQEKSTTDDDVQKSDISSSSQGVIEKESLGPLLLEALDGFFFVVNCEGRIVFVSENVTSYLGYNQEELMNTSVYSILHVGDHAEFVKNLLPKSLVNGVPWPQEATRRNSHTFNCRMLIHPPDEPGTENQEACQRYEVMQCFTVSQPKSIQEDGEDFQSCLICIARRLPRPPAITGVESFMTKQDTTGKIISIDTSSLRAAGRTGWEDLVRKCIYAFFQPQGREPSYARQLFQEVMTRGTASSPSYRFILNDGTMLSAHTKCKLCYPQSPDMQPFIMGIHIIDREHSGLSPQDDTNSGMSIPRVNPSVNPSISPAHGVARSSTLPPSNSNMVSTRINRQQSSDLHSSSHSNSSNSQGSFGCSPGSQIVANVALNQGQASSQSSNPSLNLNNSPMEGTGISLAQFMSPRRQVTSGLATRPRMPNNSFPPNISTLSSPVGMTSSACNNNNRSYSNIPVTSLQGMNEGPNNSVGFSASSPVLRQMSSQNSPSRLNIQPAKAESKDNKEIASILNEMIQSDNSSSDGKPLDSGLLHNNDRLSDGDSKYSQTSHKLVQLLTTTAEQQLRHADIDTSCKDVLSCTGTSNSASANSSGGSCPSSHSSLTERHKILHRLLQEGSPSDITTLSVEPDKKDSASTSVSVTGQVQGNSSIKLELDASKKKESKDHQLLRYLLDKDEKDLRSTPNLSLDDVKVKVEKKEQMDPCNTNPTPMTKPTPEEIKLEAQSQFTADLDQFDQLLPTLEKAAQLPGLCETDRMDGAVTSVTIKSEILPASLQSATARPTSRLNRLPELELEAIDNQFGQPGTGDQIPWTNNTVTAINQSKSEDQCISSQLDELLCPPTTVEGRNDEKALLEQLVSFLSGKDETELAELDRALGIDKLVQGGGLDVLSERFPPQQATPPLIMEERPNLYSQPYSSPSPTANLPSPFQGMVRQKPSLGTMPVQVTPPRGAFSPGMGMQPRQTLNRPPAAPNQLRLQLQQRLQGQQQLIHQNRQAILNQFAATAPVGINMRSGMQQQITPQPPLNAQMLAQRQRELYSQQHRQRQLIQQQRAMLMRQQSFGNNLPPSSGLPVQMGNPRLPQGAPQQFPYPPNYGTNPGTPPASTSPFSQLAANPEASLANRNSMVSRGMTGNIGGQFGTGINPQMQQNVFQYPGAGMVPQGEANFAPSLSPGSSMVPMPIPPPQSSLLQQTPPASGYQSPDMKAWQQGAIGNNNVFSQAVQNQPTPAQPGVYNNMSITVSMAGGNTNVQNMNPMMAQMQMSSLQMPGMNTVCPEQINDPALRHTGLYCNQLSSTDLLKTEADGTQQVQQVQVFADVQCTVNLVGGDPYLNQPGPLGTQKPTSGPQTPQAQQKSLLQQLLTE
Experiment: SRC1 coactivator transcriptional activity inhibitors, confirmation, cell-based, luminescence, quadruplicate (AID 588820);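 also: 0% = DMSO wells and 100% = gossypol 36 µM treated wells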
Settings: HEK293 GAL4-SRC1 luciferase reporter, at 3.6 µM, active compounds read high
List of inhibition values.

>  <molecule>
COCCn1c(C)cc(/C=C2/NC(=O)N(c3cccc(Cl)c3)C2=O)c1C

>  <measured_on>
Nuclear receptor coactivator 1 (Homo sapiens) (UniProt Q15788)

>  <unit_abbrev>
%

>  <inhibition>
-34.5

$$$$
>  <molecule>
CC(C)(C)c1ccc(/C=C2\SC(=O)N(CCNC(=O)c3cccc(S(=O)(=O)N4CCOCC4)c3)C2=O)cc1

>  <measured_on>
Nuclear receptor coactivator 1 (Homo sapiens) (UniProt Q15788)

>  <unit_abbrev>
%

>  <inhibition>
-58.1

$$$$
>  <molecule>
CC(C)(C)N(Cc1ccc2c(c1)OCO2)C(=O)/C=C\S(=O)c1ccccc1 (stereo not given)

>  <measured_on>
Nuclear receptor coactivator 1 (Homo sapiens) (UniProt Q15788)

>  <unit_abbrev>
%

>  <inhibition>
17.8

$$$$
>  <molecule>
Cc1ccc(-n2c(-c3ccccc3)c[n+]3c2CCc2ccccc2-3)c(C)c1

>  <measured_on>
Nuclear receptor coactivator 1 (Homo sapiens) (UniProt Q15788)

>  <unit_abbrev>
%

>  <inhibition>
42.5

$$$$
>  <molecule>
O=[N+]([O-])c1ccc2ncnc(Nc3ccc4c(c3)OCCO4)c2c1

>  <measured_on>
Nuclear receptor coactivator 1 (Homo sapiens) (UniProt Q15788)

>  <unit_abbrev>
%

>  <inhibition>
59.8

$$$$
>  <molecule>
NS(=O)(=O)c1ccc(CNC(=O)c2cnccn2)cc1

>  <measured_on>
Nuclear receptor coactivator 1 (Homo sapiens) (UniProt Q15788)

>  <unit_abbrev>
%

>  <inhibition>
-22.2

$$$$
>  <molecule>
CCC1=C(CC2NCCc3ccccc32)CC2c3cc(OC)c(OC)cc3CCN2C1 (stereo not given)

>  <measured_on>
Nuclear receptor coactivator 1 (Homo sapiens) (UniProt Q15788)

>  <unit_abbrev>
%

>  <inhibition>
63.7

$$$$
>  <molecule>
O=C(CCC1CCCC1)Nc1ccc(C(=O)NCc2cccnc2)cc1

>  <measured_on>
Nuclear receptor coactivator 1 (Homo sapiens) (UniProt Q15788)

>  <unit_abbrev>
%

>  <inhibition>
62.4

$$$$
>  <molecule>
COc1ccc(CCNc2ncnc3c2[nH]c2cc(OC)c(OC)cc23)cc1OC

>  <measured_on>
Nuclear receptor coactivator 1 (Homo sapiens) (UniProt Q15788)

>  <unit_abbrev>
%

>  <inhibition>
-33.2

$$$$
>  <molecule>
CCCCCCCCCn1ccc(=N)cc1

>  <measured_on>
Nuclear receptor coactivator 1 (Homo sapiens) (UniProt Q15788)

>  <unit_abbrev>
%

>  <inhibition>
58.6

$$$$

###

Biological target: Nuclear receptor subfamily 5 group A member 2 (Homo sapiens)
Assay: LRH-1 (NR5A2) inverse agonists, retest, confirmation, cell-based, luminescence (AID 651613);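 also: HEK293T cells co-transfected with LRH-1 and StAR promoter luciferase reporter; 0% = vehicle wells and 100% = parental cells lacking receptor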
Conditions: cell-based LRH-1 luciferase reporter, inverse agonism; at 3.6 µM
The source made the active and inactive calls. Cut-off read from the data, not from the text of the source: active = inhibition above about 42%; inactive = the rest. Bridge positions count the residues as written; N and C are the ends. Square brackets hold non-standard residues; d marks the D form. Peptide text beside a SMILES is read from it.
Possible outcomes: 1 (active), 0 (inactive)

>  <compound>
Cc1ccc(C(=O)Nc2sc(C)c(-c3ccccc3)c2C(N)=O)cc1[N+](=O)[O-]

>  <answer_label>
0

$$$$
>  <compound>
COC(=O)c1ccc(NC(=O)COc2cccc(-n3cnnn3)c2)cc1

>  <answer_label>
1

$$$$
>  <compound>
CCc1c(C)nc2ncnn2c1NCCc1ccc(OC)cc1

>  <answer_label>
1

$$$$
>  <compound>
Cc1c(C(=O)N(Cc2ccc(F)cc2)C2CCS(=O)(=O)C2)oc2ccccc12 (stereo not given)

>  <answer_label>
0

$$$$
>  <compound>
Cc1ccc(Cl)cc1NC(=O)COC(=O)CC(C)(C)C

>  <answer_label>
1

$$$$
>  <compound>
C=CC[n+]1c(-c2ccc(Cl)cc2Cl)csc1Nc1c(C)n(C)n(-c2ccccc2)c1=O

>  <answer_label>
1

$$$$
>  <compound>
COc1ccc(-n2c(SCC(=O)NCc3ccco3)nc3sc4c(c3c2=O)CCN(C)C4)cc1

>  <answer_label>
0

$$$$
>  <compound>
CN(Cc1ccccc1)C(=O)c1ccc(NC(=O)Cc2ccc(NC(=O)C3CCCN(C(=O)CCc4ccccc4)C3)cc2)cc1 (stereo not given)

>  <answer_label>
1

$$$$
>  <compound>
O=C(NCc1ccco1)c1nn(-c2ccccc2)c(=O)c2ccccc12

>  <answer_label>
1

$$$$
>  <compound>
Cc1nc(N)nc(N)c1/C=C/C(C)(C)c1ccc(Cl)cc1

>  <answer_label>
1

$$$$
>  <compound>
CCCc1cc(=O)oc2cc(OCC(=O)N3CCN(C(=O)C4COc5ccccc5O4)CC3)ccc12 (stereo not given)

>  <answer_label>
1

$$$$
>  <compound>
O=C(NC(Nc1nc2ccc([N+](=O)[O-])cc2s1)(C(F)(F)F)C(F)(F)F)c1ccccc1Cl

>  <answer_label>
1

$$$$
>  <compound>
CCCn1c(C)cc(C(=O)CN2C(=O)c3ccccc3S2(=O)=O)c1C

>  <answer_label>
0

$$$$
>  <compound>
CCCCc1c(O)nc(SCC(=O)Nc2ccc3c(c2)CCC3)[nH]c1=O

>  <answer_label>
0

$$$$
>  <compound>
CCCc1cc(=O)oc2c(C)c(OCC(=O)NCCCn3ccnc3)ccc12

>  <answer_label>
1

$$$$
>  <compound>
CCc1cc(=O)oc2cc(C)cc(OCC(=O)NC3CC3)c12

>  <answer_label>
1

$$$$
>  <compound>
COCC(=O)OC1CCn2c1nc1c2C(=O)C(C)=C(NC(C)=O)C1=O (stereo not given)

>  <answer_label>
1

$$$$
>  <compound>
CC[n+]1c(/C=C2\Sc3ccccc3N2C)ccc2cccc(C)c21

>  <answer_label>
1

$$$$
>  <compound>
COc1ccc(C(=O)C2CCCN(Cc3cccn3-c3ccc(Cl)cn3)C2)c(OC)c1 (stereo not given)

>  <answer_label>
1

$$$$
>  <compound>
Cc1cc(-c2nnc(SCC(=O)Nc3cccc(C)c3C)n2N)n[nH]1

>  <answer_label>
1

$$$$
>  <compound>
COc1cc(C(=O)OCC(=O)Nc2ccc(N3CCOCC3)cc2)ccc1OCC(C)C

>  <answer_label>
1

$$$$
>  <compound>
O=C(COC(=O)C1CC1)NCCc1ccc(Cl)cc1

>  <answer_label>
1

$$$$
>  <compound>
COc1ccc(NC(=O)Cn2c(C)cc(=O)c3ccccc32)cc1

>  <answer_label>
1

$$$$
>  <compound>
C=CCn1c(C)cc(C2=NNC(=NCC)SC2)c1C

>  <answer_label>
1

$$$$
>  <compound>
COc1cc(N)c2ncccc2c1Br

>  <answer_label>
0

$$$$
>  <compound>
CC(=O)Nc1ccc(NC(=O)COC(=O)c2ccc([N+](=O)[O-])o2)cc1

>  <answer_label>
1

$$$$
>  <compound>
COc1ccc(C)cc1NS(=O)(=O)c1ccc(-c2cnc(C3CC3)o2)cc1

>  <answer_label>
1

$$$$
>  <compound>
COCCn1c(SCCCC(=O)c2ccc(Br)cc2)nnc1-c1ccncc1

>  <answer_label>
1

$$$$
>  <compound>
CCc1ccc(S(=O)(=O)/N=C2\C=C(Nc3ccc(O)cc3)C(=O)c3ccccc32)cc1

>  <answer_label>
1

$$$$
>  <compound>
CC(=O)N1CCc2c(sc(NC(=O)Cc3ccccc3)c2C#N)C1

>  <answer_label>
1

$$$$
>  <compound>
Oc1ccccc1N=Nc1nc(-c2ccccc2)c(-c2ccccc2)[nH]1

>  <answer_label>
1

$$$$
>  <compound>
CC[C@H](C)[C@@H]1NC(=O)[C@@H](CC(C)C)NC(=O)[C@H](C(C)C)NC(=O)[C@H]2CSSC[C@H](NC1=O)C(=O)N2 (cyclo(C[dC]V[dL]I); disulfide 1-2)

>  <answer_label>
1

$$$$
>  <compound>
CCOc1ccc(NC(=O)COC(=O)c2ccc3c(c2)OCCO3)cc1

>  <answer_label>
1

$$$$
>  <compound>
Cc1cc(NC(=O)CSc2nc3c(sc4ccccc43)c(=O)n2CCCN2CCOCC2)n[nH]1

>  <answer_label>
1

$$$$
>  <compound>
Cc1cc(OCC(=O)Nc2nccs2)c2c(C)c(C)c(=O)oc2c1

>  <answer_label>
1

$$$$
>  <compound>
Cc1ccc(-n2c(-c3ccc(Br)cc3)c[n+]3c2CCc2ccc4cccnc4c2-3)cc1

>  <answer_label>
1

$$$$
>  <compound>
CCCc1cc(=O)oc2cc(C)cc(OCC(=O)Nc3ccccn3)c12

>  <answer_label>
1

$$$$
>  <compound>
NC(=O)CC[C@H](NC(=O)c1ccc(F)cc1)C(=O)OCC(=O)Nc1ccc(N2CCOCC2)cc1

>  <answer_label>
1

$$$$
>  <compound>
On1ccccc1=S

>  <answer_label>
1

$$$$
>  <compound>
Cc1cc2ncn(/N=C/c3ccc([N+](=O)[O-])o3)c2cc1C

>  <answer_label>
1

$$$$
